Test system: SK-MEL-5
protocolText: NCI tumour cell line growth inhibition, 48 h
Activity calls are given as the source filed them. No stated cut-off is given here; in the data, active = GI50 up to about 1.1 µM and inactive = higher.
valueType: GI50

molecule="CCSCCC(N)C(=O)O (stereo not given)" valuetype=GI50 valuemeasured="> 100 µM (inactive)"
molecule="C#CC(O)/C=C/CCCCCCC#CC/C=C\\CC#CCCCCCCCCC(O)C#C (stereo not given)" valuetype=GI50 valuemeasured="2.68 µM (inactive)"
molecule=c1ccc2c3nnc(c2c1)SCCSCCSc1nnc(c2ccccc12)SCCSCCS3 valuetype=GI50 valuemeasured="> 100 µM (inactive)"
molecule="CCOC(=O)N1CCC2(CC1)C[C@@](C(C)=O)(c1ccccc1)C(C)O2 (stereo not given in full)" valuetype=GI50 valuemeasured="> 100 µM (inactive)"
molecule=O=C1/C(=C/c2ccc3c(c2)OCCO3)CCC/C1=C\c1ccc2c(c1)OCCO2 valuetype=GI50 valuemeasured="25.6 µM (inactive)"
molecule="COC(=O)CC(C#N)(OP1(=O)OC(c2ccccc2)C(C)N1C)c1ccccc1 (stereo not given)" valuetype=GI50 valuemeasured="64.3 µM (inactive)"
molecule=Cn1cc(NC(=O)Nc2cc(C(=O)Nc3cc(C(=O)Nc4ccc(S(=O)(=O)O)c5cc(S(=O)(=O)O)ccc45)n(C)c3)n(C)c2)cc1C(=O)Nc1cc(C(=O)Nc2ccc(S(=O)(=O)O)c3cc(S(=O)(=O)O)ccc23)n(C)c1 valuetype=GI50 valuemeasured="> 100 µM (inactive)"
molecule=C/C(=N/NS(=O)(=O)c1ccc(C)cc1)c1cccc[n+]1[O-] valuetype=GI50 valuemeasured="> 100 µM (inactive)"
molecule="COC(=O)[C@]1(C)C(OC)=CC(=O)C2C1[C@H]1CCC[C@@H]21 (stereo not given in full)" valuetype=GI50 valuemeasured="> 100 µM (inactive)"
molecule=COc1ccc(CCNC(=O)Cc2cc(OC)c(OC)cc2CO)cc1OC valuetype=GI50 valuemeasured="> 100 µM (inactive)"
molecule="COc1ccc(NC(=O)C2C(=O)N(c3ccc(OC)cc3)C(=O)/C2=N\\NC(N)=O)cc1 (stereo not given)" valuetype=GI50 valuemeasured="17.8 µM (inactive)"
molecule=CC1=C(/C=C/C(C)=C/C=C/C(C)=C/C=C/C=C(C)/C=C/C=C(C)/C=C/C=C(C)/C=C/C=C(\C)C(=O)O)C(C)(C)CCC1 valuetype=GI50 valuemeasured="> 100 µM (inactive)"
molecule="OC12c3ccccc3C3CCC4(OCCO4)C3C1c1ccccc12 (stereo not given)" valuetype=GI50 valuemeasured="> 100 µM (inactive)"
molecule=O=C1NC(=S)N/C1=C\c1cc2c(=O)c3ccccc3sc2s1 valuetype=GI50 valuemeasured="> 100 µM (inactive)"
molecule="C=C1c2[nH]c3ccccc3c2C2C(CC)C1CCN2C (stereo not given)" valuetype=GI50 valuemeasured="61.1 µM (inactive)"
molecule="C=C(Cl)C(Cl)(CCl)CCC(Br)C(C)(C)Br (stereo not given)" valuetype=GI50 valuemeasured="> 10 µM (inactive)"
molecule="O=c1ccn(C2OC(CO)C(O)C2[Se]c2ccccc2)c(=O)[nH]1 (stereo not given)" valuetype=GI50 valuemeasured="> 100 µM (inactive)"
molecule=Cc1cccc(O)c(=O)c1 valuetype=GI50 valuemeasured="28.1 µM (inactive)"
molecule="NC(=O)C1=C(O)C[C@@H]2CC3Cc4cccc(O)c4C(=O)C3=C(O)[C@]2(O)C1=O (stereo not given in full)" valuetype=GI50 valuemeasured="1.36 µM (inactive)"
molecule="CC(C)=CCNc1ncnc2c1c(C#N)cn2C1OC(CO)C(O)C1O (stereo not given)" valuetype=GI50 valuemeasured="21.7 µM (inactive)"

----------
Test system: RXF 631
protocolText: NCI tumour cell line growth inhibition, 48 h
Activity calls are given as the source filed them. Cut-off read from the data, not from the text of the source: active = GI50 up to about 1.1 µM and inactive = higher.
GI50 values for the compounds below.
valueType: GI50

compound=O=C(N/C(=C\c1ccccc1Cl)c1nc2ccccc2[nH]1)c1ccccc1 valuetype=GI50 valuemeasured="26.5 µM (inactive)"
compound=Cc1ccc2nc3c(Cl)cc(=O)cc-3sc2c1 valuetype=GI50 valuemeasured="30.8 µM (inactive)"
compound=O=C(/C=C/c1ccco1)N1CCN(Cc2ccccc2)CC1 valuetype=GI50 valuemeasured="> 100 µM (inactive)"
compound="CSC(C1c2ccccc2N(C)C2=NC(=O)N(C)C(=O)C21Cl)S(=O)(=O)c1ccc(C)cc1 (stereo not drawn)" valuetype=GI50 valuemeasured="39.6 µM (inactive)"
compound=CN(C)C(=O)Oc1c(-c2ccccc2)c(=O)n2c3ccccc3n3c(=O)n(C)c(=O)c1c23 valuetype=GI50 valuemeasured="> 100 µM (inactive)"
compound=Cc1cc(N(CCC#N)CCC#N)ccc1/C=C(\NC(=O)/C=C/c1ccccc1)C(=O)Nc1ccc(Cl)cc1 valuetype=GI50 valuemeasured="> 100 µM (inactive)"
compound="COC(=O)C(=O)C(C(=O)C(=O)Nc1ccc(Cl)cc1C)c1nc2ccc(C(=O)c3ccccc3)cc2nc1O (stereo not drawn)" valuetype=GI50 valuemeasured="> 100 µM (inactive)"
compound="COc1cccc(C(=O)C2C(=O)N(C)CCc3ccccc32)c1OC (stereo not drawn)" valuetype=GI50 valuemeasured="> 100 µM (inactive)"

----------
System: HT-29
protocolText: NCI tumour cell line growth inhibition, 48 h
Calls of active or inactive are those of the source. Rule as the data show it: active = GI50 up to about 1.1 µM and inactive = higher.
Possible outcomes: active, inactive

compound=COc1cccc2c1C(=O)c1ccc3cc(CCl)cc(O)c3c1C2=O assignedclass=active
compound=CS(=O)(=O)NNS(=O)(=O)c1ccc(Br)cc1 assignedclass=inactive
compound=CC(C)=CC(=O)C[C@H]1C(=O)O[C@@H]2C[C@H]3C(C)=CC(=O)[C@@H](O)[C@]3(C)[C@H]3[C@@]4(O)OC[C@]32[C@@H]1[C@@H](C)[C@H]4O assignedclass=active
compound=Cc1nc2nn(Cc3ccccc3)cc2c(=O)o1 assignedclass=inactive
compound="COC1CCC2C(NS(=O)(=O)c3ccc(C)cc3)CCCC2O1.Cc1ccc(S(=O)(=O)NC(C)(C)C=O)cc1 (stereo not given)" assignedclass=inactive
compound=CC1c2c(Cl)nc3ccccc3c2Oc2c1c(Cl)nc1ccccc21 assignedclass=inactive
compound=CCN(C(=O)N[C@@H](CC(C)C)C(=O)NCC(=O)OC)c1ccccc1 assignedclass=inactive
compound=CCOC(=O)c1nnsc1NN assignedclass=inactive
compound=CN(C)CCN(C)CCC(=O)/C=C/c1ccccc1 assignedclass=inactive
compound="O=C1c2ccccc2C(=O)C2C1C1C(=O)c3ccccc3C(=O)C21 (stereo not given)" assignedclass=inactive

----------
Test system: HCC 2998
protocolText: NCI tumour cell line growth inhibition, 48 h
Active and inactive are the calls of the source. Cut-off read from the data, not from the text of the source: active = GI50 up to about 1.1 µM and inactive = higher.
Reported GI50 is given for each of the following molecules.
valueType: GI50

molecule="CCC(C#N)(c1ccccc1)N(CCc1ccccc1)C(=O)c1ccccc1 (stereo not given)" experimentaltarget="HCC 2998" valuemeasured="54.7 µM (inactive)"
molecule=O=C1CSC(=S)N1 experimentaltarget="HCC 2998" valuemeasured="> 100 µM (inactive)"
molecule=O=C1C/C(=C\O)C(=O)c2ccccc2N1 experimentaltarget="HCC 2998" valuemeasured="> 100 µM (inactive)"
molecule="COC(=O)CCC(=O)C(CC(=O)OC)C(=O)CCC(=O)NCCc1ccccc1 (stereo not given)" experimentaltarget="HCC 2998" valuemeasured="> 100 µM (inactive)"
molecule="COC(=O)C(N)CCCC(N)C(=O)NC(C)C(=O)NC(CCC(=O)NCCNCCNc1c2ccccc2nc2cccc([N+](=O)[O-])c12)C(N)=O (stereo not given)" experimentaltarget="HCC 2998" valuemeasured="8.34 µM (inactive)"

----------
System: M14
protocolText: NCI tumour cell line growth inhibition, 48 h
Calls of active or inactive are those of the source. Rule as the data show it: active = GI50 up to about 1.1 µM and inactive = higher.
Labels: 1 = active, -1 = inactive

compound="COC(=O)C1=C(OC(=O)/C(=C/c2ccc(Cl)cc2)c2ccccc2)C(C(=O)OC)[C@@]2(O)[C@@H](C(=O)OC)[C@H](C)C[C@@H]1[C@@H]2C(=O)OC (stereo not given in full)" experimentaltarget=M14 assignedclass=-1
compound="Cc1cn([C@H]2C=C[C@@H](CO)O2)c(=O)[nH]c1=O [STAVUDINE]" experimentaltarget=M14 assignedclass=-1
compound=COc1cc(C(=O)C/C(CCC(=O)Nc2ccccc2[N+](=O)[O-])=N\NC(=O)C(N)=O)ccc1O experimentaltarget=M14 assignedclass=-1
compound="COC(=O)C(=O)C(C(=O)C(=O)Nc1ccc(Cl)cc1C)c1nc2ccc(C(=O)c3ccccc3)cc2nc1O (stereo not given)" experimentaltarget=M14 assignedclass=-1
compound=O=C(CN1CCCC1)Nc1ccc2sc3ccccc3c(=O)c2n1 experimentaltarget=M14 assignedclass=-1
compound=CC1(C)N[PH]2(Nc3ccccc3O2)OC1=O experimentaltarget=M14 assignedclass=-1
compound=CCOC(=O)c1nnc2c(C(=O)OCC)c3ccccc3n2c1N experimentaltarget=M14 assignedclass=-1
compound=CC(=O)NCCCCNCCCNC(C)=O experimentaltarget=M14 assignedclass=-1
compound="COc1cc(C2c3cccc4cccc(c34)C3CCC(=O)N32)cc(O)c1O (stereo not given)" experimentaltarget=M14 assignedclass=-1
compound=CC(=O)O[C@H]1CC[C@@]2(C)C(=CC[C@H]3[C@@H]4C/C(=C\c5ccc(N(C)C)cc5)[C@H](OC(C)=O)[C@@]4(C)CC[C@@H]32)C1 experimentaltarget=M14 assignedclass=-1
compound=O=C1/C(=C/c2cccc(Br)c2)Cc2ccccc21 experimentaltarget=M14 assignedclass=-1
compound=CN(C)c1ccc(/C=C2\CCCCCC2=O)cc1 experimentaltarget=M14 assignedclass=-1
compound=COc1cccc2c1C(=O)c1ccc3cc(CCl)cc(O)c3c1C2=O experimentaltarget=M14 assignedclass=1
compound=O=P1(c2ccccc2)CCCCC1 experimentaltarget=M14 assignedclass=-1
compound="O=C1C(Cl)C2(CC(/C=C/c3ccccc3O)=NN2c2cccc(S(=O)(=O)O)c2)N1c1nc2ccccc2s1 (stereo not given)" experimentaltarget=M14 assignedclass=-1
compound="CCCCC1NC=Nc2c1ccc1c2[nH]c2ccccc21 (stereo not given)" experimentaltarget=M14 assignedclass=-1
compound=CC(=O)O[C@H]1C[C@H]2C(=S)Nc3ccccc3C(=S)N2C1 experimentaltarget=M14 assignedclass=-1
compound=NC(=O)Cc1ncn(-c2ccccc2)n1 experimentaltarget=M14 assignedclass=-1
compound="NCCCCC(N)C(=O)N1CCN(c2nc(N3CCCC3)c3nc(Cl)c(NCc4ccccc4)nc3n2)CC1 (stereo not given)" experimentaltarget=M14 assignedclass=-1
compound=CC(C)(C)NNC(=O)/C(=C/c1ccc(Oc2ccc(Cl)c(Cl)c2)cc1)NC(=O)c1ccccc1 experimentaltarget=M14 assignedclass=-1

The measured values listed here are drawn from ChEMBL document CHEMBL1201862.
